- Tested on: NUGC-3
- procedure details: Growth inhibition of human NUGC3 cells by sulforhodamine B assay
- Assay type: functional
Overview of recorded GI50 for various molecules
Dear colleague, please return just the value in µM, with no unit written.

Some solved entries appear below for comparison.
INSERT INTO results (smiles_input, value_unit, value) VALUES
  ('CCCCCCCCCCCCCCCC(=O)N1CC[N+](C)(Cc2ccccc2)CC1', 'µM', 1),
  ('CCCCCCCCCCCCCCCC(=O)N1CC[N+](C)(C)CC1', 'µM', 0.29);

Now consider the entry below.
Recorded GI50 (molecule C=CC[N+]1(C)CCN(C(=O)CCCCCCCCCCCCCCCCCCCCC)CC1 ): 1.53
